settings: rat
result type: half-life (h)
Give the number; h is assumed, so skip it.

Query: What value of half-life has been reported for the following compound? `N#Cc1ccc2cc1Oc1ccc3cccc(c3c1)N1CCN(CC1=O)Cc1cncn1C2`
Reply: 1

* * *

experimental system: Protein farnesyltransferase (Homo sapiens, UniProt P49354+P49356)
experiment notes: In vitro inhibitory activity to reduce the human farnesyltransferase catalyzed incorporation of [3H]FPP into recombinant Ras-CVIM
Reported pIC50 by item:
On this scale, pIC50 is minus log10 of a concentration expressed in M (mol/L).

Answered cases to consult:
compound_structure_string=C[C@H]1NCc2cncn2Cc2ccc(C#N)c(c2)Oc2ccc3cccc(c3c2)N(C)C1=O result_type=pIC50 result_value=7.80
compound_structure_string=CN1CC(=O)Nc2cccc3ccc(cc23)Oc2cc(ccc2C#N)Cn2cncc2C1 result_type=pIC50 result_value=8.24
compound_structure_string=CN1CC(=O)N(C)c2cccc3ccc(cc23)Oc2cc(ccc2C#N)Cn2cncc2C1 result_type=pIC50 result_value=8.08
compound_structure_string=N#Cc1ccc2cc1Oc1ccc3cccc(c3c1)C(=O)NCCCNCc1cncn1C2 result_type=pIC50 result_value=8.64

Query: What value of pIC50 has been reported for the following compound? `CN1C(=O)CNC(=O)Cc2cncn2Cc2ccc(C#N)c(c2)Oc2ccc3cccc1c3c2`
Reply: 8.18
